Values from patent US9266867B2

I'd appreciate it if you could supply AUC(0-t) values for the items below.
TEST_DESCRIPTION: Pharmacokinetic parameters in Swiss mice after oral administration
TEST_CONTEXT: mouse, in vivo, 1 mg/kg p.o., n = 4, read-out: AUC(0-48 h)
Source text: Moreover, preferred compounds of the present invention also display an outstanding bioavailability.
Kindly provide the numeric value in ng·h/mL only, without the unit symbol.

Enquiry: Find the measured AUC(0-t) of CC(C)Cc1ccc(-c2nc(-c3ccc(CN4CC(C(=O)O)C4)cc3)no2)cc1 [Comparative compound 5, reference compound] and report it.
Return: 4530

Enquiry: Find the measured AUC(0-t) of CC(C)Cc1ccc(-c2nc(-c3ccc(CN4CCC(C)(C(=O)O)CC4)cc3)no2)cc1Cl and report it.
Return: 13100

Enquiry: Find the measured AUC(0-t) of COCCOCC1(C(=O)O)CCN(Cc2ccc(-c3noc(-c4ccc(CC(C)C)c(Cl)c4)n3)cc2)CC1 and report it.
Return: 9240

====

I'd appreciate it if you could supply pIC50 values for the items below.
pIC50: −log10 of the molar value.

Enquiry: Specify the recorded pIC50 for CCCCCCCCCCCCC/C=C/[C@@H](O)[C@@H](N)COP(=O)(O)O [Example S1P, sphingosine-1-phosphate] , system: EDG-1 (Homo sapiens).
Return: ~8.30

Enquiry: Specify the recorded pIC50 for CCCCCCCCCCCCCCC[C@@H](O)[C@@H](N)COP(=O)(O)O [dihydroS1P] , system: EDG-1 (Homo sapiens).
Return: ~8.30

====

TARGET: EDG-1 (Homo sapiens, UniProt P21453)
Sequence (P21453 whole entry): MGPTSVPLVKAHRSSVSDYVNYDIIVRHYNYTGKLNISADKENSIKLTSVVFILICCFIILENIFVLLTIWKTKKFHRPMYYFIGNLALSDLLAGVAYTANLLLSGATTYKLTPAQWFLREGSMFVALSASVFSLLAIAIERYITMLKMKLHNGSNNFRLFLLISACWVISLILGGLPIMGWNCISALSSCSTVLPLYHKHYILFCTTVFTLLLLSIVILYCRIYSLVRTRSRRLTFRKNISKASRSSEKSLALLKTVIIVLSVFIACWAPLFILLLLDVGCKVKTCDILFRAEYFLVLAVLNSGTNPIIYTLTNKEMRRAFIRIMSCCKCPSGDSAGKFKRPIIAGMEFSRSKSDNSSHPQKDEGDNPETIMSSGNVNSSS
TEST_DESCRIPTION: 35S-GTPγS binding assay, EDG1 (S1P1)
Format: biochemical
Design: expressed in transfected cells
TEST_CONTEXT: Table 1b; read-out: EDG1 EC50
I'd appreciate it if you could supply EC50 values for the items below.

Enquiry: Find the measured EC50 of O=C(O)C1(Cc2ccccc2)CCN(Cc2ccc(-c3noc(-c4ccc(-c5ccccc5)c(Cl)c4)n3)cc2)CC1 [Example 55] and report it.
Return: < 1 nM

Enquiry: Find the measured EC50 of COCC1(C(=O)O)CCN(Cc2ccc(-c3noc(-c4ccc(-c5ccccc5)c(Cl)c4)n3)cc2)CC1 [Example 29] and report it.
Return: < 1 nM

Enquiry: Find the measured EC50 of CC(C)Cc1ccc(-c2nc(-c3ccc(CN4CCC(CCN5CCOCC5)(C(=O)O)CC4)cc3)no2)cc1Cl [Example 64] and report it.
Return: < 10 nM

Enquiry: Find the measured EC50 of CC(C)Cc1ccc(-c2nc(-c3ccc(CN4CCC(Cc5ccc(F)cc5)(C(=O)O)CC4)cc3)no2)cc1Cl [Example 25] and report it.
Return: < 1 nM

Enquiry: Find the measured EC50 of O=C(O)C1(Cc2ccc(F)cc2)CCN(Cc2ccc(-c3noc(-c4ccc(-c5ccccc5)c(Cl)c4)n3)cc2)CC1 [Example 52] and report it.
Return: < 1 nM

Enquiry: Find the measured EC50 of COCC1(C(=O)O)CCN(Cc2ccc(-c3noc(-c4ccc(C5CCCC5)c(Cl)c4)n3)cc2)CC1 [Example 9] and report it.
Return: < 1 nM

Enquiry: Find the measured EC50 of CC(C)Cc1ccc(-c2nc(-c3ccc(CN4CCC(CCCN5CCCC5)(C(=O)O)CC4)cc3)no2)cc1Cl [Example 66] and report it.
Return: < 10 nM

====

System: circulating lymphocytes
TEST_DESCRIPTION: In vivo lymphopenia ED50 in mice
TEST_CONTEXT: Mus musculus, Lymphocyte, read-out: ED50 (EDG1) (In mice)
With a cut-off of 0.2 mg/kg, any ED50 strictly below it is called YES; any ED50 meeting it or above is called NO.

Enquiry: Does Cl.O=C(O)C1(C(=O)O)CCN(Cc2ccc(-c3noc(-c4ccc(-c5ccccc5)c(F)c4)n3)cc2)CC1 [Comparative example 6, reference compound] have ED50 strictly under 0.2 mg/kg?
Return: NO

Enquiry: Does Cl.O=C(O)C1(C(=O)O)CCN(Cc2ccc(-c3noc(-c4ccc(C5CCCCC5)cc4)n3)cc2)CC1 [Comparative example 8, reference compound] have ED50 strictly under 0.2 mg/kg?
Return: NO

Enquiry: Does CC(C)Cc1ccc(-c2nc(-c3ccc(CN4CCC(C(=O)O)(C(=O)O)CC4)cc3)no2)cc1 [Comparative example 7, reference compound] have ED50 strictly under 0.2 mg/kg?
Return: NO

Enquiry: Does CC1(C(=O)O)CCN(Cc2ccc(-c3noc(-c4ccc(-c5ccccc5)c(Cl)c4)n3)cc2)CC1 have ED50 strictly under 0.2 mg/kg?
Return: YES

====

System: circulating lymphocytes
TEST_DESCRIPTION: Assessment of lymphopenia in rats
Format: in vivo
TEST_CONTEXT: 1 mpk p.o., 24 Hrs
RESULT_TYPE: Lymphopenia in rats % lymphopenia at 1 mpk/p.o dose 24 Hrs (%)
Kindly provide the numeric value in % only, without the unit symbol.

Enquiry: Find the measured Lymphopenia in rats % lymphopenia at 1 mpk/p.o dose 24 Hrs of CC(C)Cc1ccc(-c2nc(-c3ccc(CN4CCC[C@@H](C(=O)O)C4)cc3)no2)cc1 and report it.
Return: −58

Enquiry: Find the measured Lymphopenia in rats % lymphopenia at 1 mpk/p.o dose 24 Hrs of CC(C)Cc1ccc(-c2nc(-c3ccc(CN4CCC(C(=O)O)CC4)cc3)no2)cc1.Cl and report it.
Return: −101

Enquiry: Find the measured Lymphopenia in rats % lymphopenia at 1 mpk/p.o dose 24 Hrs of Cl.O=C(O)C1CCN(Cc2ccc(-c3noc(-c4ccc(C5CCCCC5)cc4)n3)cc2)CC1 and report it.
Return: −57

Enquiry: Find the measured Lymphopenia in rats % lymphopenia at 1 mpk/p.o dose 24 Hrs of O=C(O)C1CCN(Cc2ccc(-c3noc(-c4ccc(-c5ccccc5)c(F)c4)n3)cc2)CC1 and report it.
Return: −54

====

I'd appreciate it if you could supply EC50 values for the items below.
TARGET: UniProt P21453
TEST_DESCRIPTION: 35S-GTPγS binding assay, EDG1 (S1P1)
Assay type: biochemical
Set-up: expressed in transfected cells
TEST_CONTEXT: Table 1a; read-out: EC50 (nM) EDG1

Enquiry: Find the measured EC50 of CC1(C(=O)O)CCN(Cc2ccc(-c3noc(-c4ccc(C5CCCC5)c(Cl)c4)n3)cc2)CC1 and report it.
Return: < 1 nM

Enquiry: Find the measured EC50 of CC(C)Cc1ccc(-c2nc(-c3ccc(CN4CCC(CO)(C(=O)O)CC4)cc3)no2)cc1Cl and report it.
Return: < 1 nM

Enquiry: Find the measured EC50 of CC(C)Cc1ccc(-c2nc(-c3ccc(CN4CCC(C)(C(=O)O)CC4)cc3)no2)cc1Cl and report it.
Return: < 1 nM

Enquiry: Find the measured EC50 of CC1(C(=O)O)CCN(Cc2ccc(-c3noc(-c4ccc(C5CCCCC5)c(Cl)c4)n3)cc2)CC1 and report it.
Return: < 1 nM

Enquiry: Find the measured EC50 of CCCC1(C(=O)O)CCN(Cc2ccc(-c3noc(-c4ccc(CC(C)C)c(Cl)c4)n3)cc2)CC1 and report it.
Return: < 1 nM

Enquiry: Find the measured EC50 of COCC1(C(=O)O)CCN(Cc2ccc(-c3noc(-c4ccc(C5CCCCC5)c(Cl)c4)n3)cc2)CC1 and report it.
Return: < 1 nM

Enquiry: Find the measured EC50 of COCCOCC1(C(=O)O)CCN(Cc2ccc(-c3noc(-c4ccc(CC(C)C)c(Cl)c4)n3)cc2)CC1 and report it.
Return: < 1 nM

====

TARGET: EDG-1 (Homo sapiens, UniProt P21453)
TEST_DESCRIPTION: 35S-GTPγS binding assay, EDG1 (S1P1)
Assay type: biochemical
Set-up: expressed in transfected cells
pEC50: −log10 of the molar value.
RESULT_TYPE: pEC50

Enquiry: Find the measured pEC50 of CC(C)Cc1ccc(-c2nc(-c3ccc(CN4CCC(C(=O)O)(c5ccccc5)CC4)cc3)no2)cc1Cl and report it.
Return: > 8.00

====

TARGET: EDG3 (Homo sapiens, UniProt Q99500)
Sequence (Q99500 whole entry, species assumed): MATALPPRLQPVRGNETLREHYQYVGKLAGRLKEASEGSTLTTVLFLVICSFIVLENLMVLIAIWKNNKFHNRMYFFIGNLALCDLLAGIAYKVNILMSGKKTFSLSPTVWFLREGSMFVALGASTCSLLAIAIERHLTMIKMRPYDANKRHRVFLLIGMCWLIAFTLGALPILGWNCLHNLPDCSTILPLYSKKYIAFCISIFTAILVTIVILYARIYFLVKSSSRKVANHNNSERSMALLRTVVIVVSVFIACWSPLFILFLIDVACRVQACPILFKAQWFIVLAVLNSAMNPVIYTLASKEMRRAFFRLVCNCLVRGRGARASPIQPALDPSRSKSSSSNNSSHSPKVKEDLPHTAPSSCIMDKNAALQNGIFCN
TEST_DESCRIPTION: 35S-GTPγS binding assay, EDG3 (S1P3)
Type: biochemical
TEST_CONTEXT: Table 1a
RESULT_TYPE: EC50

Enquiry: Find the measured EC50 of CC1(C(=O)O)CCN(Cc2ccc(-c3noc(-c4ccc(C5CCCC5)c(Cl)c4)n3)cc2)CC1 [Example 7] and report it.
Return: 581 nM

Enquiry: Find the measured EC50 of COCC1(C(=O)O)CCN(Cc2ccc(-c3noc(-c4ccc(C5CCCCC5)c(Cl)c4)n3)cc2)CC1 [Example 10] and report it.
Return: 610 nM

Enquiry: Find the measured EC50 of CC1(C(=O)O)CCN(Cc2ccc(-c3noc(-c4ccc(C5CCCCC5)c(Cl)c4)n3)cc2)CC1 [Example 1] and report it.
Return: > 1000 nM

Enquiry: Find the measured EC50 of CC(C)Cc1ccc(-c2nc(-c3ccc(CN4CCC(CO)(C(=O)O)CC4)cc3)no2)cc1Cl [Example 15] and report it.
Return: > 1000 nM

Enquiry: Find the measured EC50 of COCC1(C(=O)O)CCN(Cc2ccc(-c3noc(-c4ccc(C5CCCC5)c(Cl)c4)n3)cc2)CC1 [Example 9] and report it.
Return: > 1000 nM

Enquiry: Find the measured EC50 of CCCC1(C(=O)O)CCN(Cc2ccc(-c3noc(-c4ccc(CC(C)C)c(Cl)c4)n3)cc2)CC1 [Example 13] and report it.
Return: > 1000 nM

Enquiry: Find the measured EC50 of CCC1(C(=O)O)CCN(Cc2ccc(-c3noc(-c4ccc(CC(C)C)c(Cl)c4)n3)cc2)CC1 [Example 11] and report it.
Return: 198 nM

Enquiry: Find the measured EC50 of C=CCC1(C(=O)O)CCN(Cc2ccc(-c3noc(-c4ccc(CC(C)C)c(Cl)c4)n3)cc2)CC1 [Example 12] and report it.
Return: > 1000 nM

Enquiry: Find the measured EC50 of COCCOCC1(C(=O)O)CCN(Cc2ccc(-c3noc(-c4ccc(CC(C)C)c(Cl)c4)n3)cc2)CC1 [Example 14] and report it.
Return: > 1000 nM
